TEST_SYSTEM: Mitogen-activated protein kinase 10 (Homo sapiens, UniProt P53779)
Sequence (P53779 whole entry): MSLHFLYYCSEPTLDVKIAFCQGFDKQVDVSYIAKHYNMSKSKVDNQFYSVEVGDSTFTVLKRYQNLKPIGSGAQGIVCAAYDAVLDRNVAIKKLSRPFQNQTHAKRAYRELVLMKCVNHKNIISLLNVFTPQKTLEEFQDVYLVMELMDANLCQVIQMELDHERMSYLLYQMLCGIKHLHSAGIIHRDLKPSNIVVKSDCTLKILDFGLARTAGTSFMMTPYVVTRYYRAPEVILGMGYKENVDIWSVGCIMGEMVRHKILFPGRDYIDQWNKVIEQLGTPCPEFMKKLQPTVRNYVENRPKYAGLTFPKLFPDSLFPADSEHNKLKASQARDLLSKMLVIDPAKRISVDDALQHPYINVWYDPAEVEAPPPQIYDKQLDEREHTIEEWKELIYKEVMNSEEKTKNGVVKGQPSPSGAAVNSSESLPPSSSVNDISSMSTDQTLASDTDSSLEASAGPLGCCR
TEST_DESCRIPTION: Competitive inhibition of JNK3 (unknown origin) in presence of ATP
PROPERTY_NAME: IC50 (nM)
Supply the numeric figure in nM, leaving out any unit text.

So, Oc1cccc(-c2nc3ccccc3n2-c2ccnc(N[C@@H]3CCCNC3)c2)c1 ? Its IC50 was 1860
